measurementProtocol: xn = mol fraction of the nth substance listed
testConditions: 318.15 K; 101 kPa; Liquid; x1 = 0.2
Listed molecules paired with reported mass density
# output: bare number, implied unit kg/m3

Reference set (4 entries):
CCCC(=O)OCCC(C)C [3-methylbutyl butanoate] + CCO | 798.28
CCOC(=O)c1ccccc1 [ethyl benzoate] + CCO | 866.54
CCOC(=O)Cc1ccccc1 [ethyl phenylacetate] + CCO | 866.6
CCCCCCCC(=O)OCC [ethyl octanoate] + CCO | 801.79

Field: next molecule
Bench note: what mass density did CCCCCC(=O)OCC [ethyl hexanoate] + CCO show?
799.48

###

measurementProtocol: xn = mol fraction of the nth substance listed
testConditions: 308.15 K; 100.5 kPa; Liquid; x1 = 0.1
Numbers after ± are expanded uncertainties.
metric: viscosity
Your answer should be a number followed by the unit of measure.

Use these answered entries as a reference point.
CCCC(=O)OCCC(C)C [3-methylbutyl butanoate] + CCO | 0.858 ± 0.016 mPa·s
CCCCCC(=O)OCC [ethyl hexanoate] + CCO | 0.829 ± 0.015 mPa·s
CCOC(=O)Cc1ccccc1 [ethyl phenylacetate] + CCO | 0.967 ± 0.016 mPa·s
CCCCCCCC(=O)OCC [ethyl octanoate] + CCO | 0.907 ± 0.016 mPa·s
CCOC(=O)c1ccccc1 [ethyl benzoate] + CCO | 0.938 ± 0.016 mPa·s

Could you now consider this next compound?
Need viscosity of CC(=O)OCCC(C)C [3-methylbutyl ethanoate] + CCO , thanks.
0.799 ± 0.015 mPa·s
